Values compiled from patent US20260132197A1.

Biological target: T1, Human CD47-C33G (human, UniProt Q08722 19-135)
T1 construct: also called CD47 mutein with C33G mutation
T1 sequence (Q08722 19-135 C33G limits assumed): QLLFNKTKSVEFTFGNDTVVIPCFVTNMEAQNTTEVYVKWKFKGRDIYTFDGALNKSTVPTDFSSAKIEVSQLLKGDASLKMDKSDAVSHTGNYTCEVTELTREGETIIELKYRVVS
Assay: SPR, IgG captured, CD47 in flow; exp 1;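 note: biacore T200 SPR using IgG from supernatants of transfected HEK293 cells, rate constants fitted to association and dissociation curves, Kd derived from koff over kon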
Documented koff across a set of binders
Write the value in s⁻¹ as a bare number.

# Binder, koff (s⁻¹)
records = [
    ("108VH5.M5 / 108VL1.M5 (antibody, human IgG4 S228P, kappa, V domains shown, Full-length IgG4 (S228P), kappa; also called VH5.M5 VL1.M5) VH: EVQLVQSGAEVKKPGASVKVSCKASGYTFTHHWIHWVRQAPGQGLEWMGMIDASDSETRLSQKFKDRVTMTRDTSTSTVYMELSSLRSEDTAVYYCARLGRYYFDYWGQGTLVTVSS VL: EIVLTQSPATLSLSPGERATLSCRASQSVSSYLAWYQQKPGQAPRLLIYGASNRATGIPARFSGSGSGTDFTLTISSLEPEDFAVYYCGESYGHLYTFGGGTKVEIKR", 0.0021),
    ("chimeric antibody 108C10A6 (antibody, V domains shown, Chimeric antibody with mouse variable domains; captured through human Fc; also called VH / VL) VH: QMQLQQSGPQLVRPGASVKISCKTSGYSFTHHWIHWMKQRPGQGLEWIGMIDPSDSETRLSQKFKDKATLTVDASSSTAYMQLNSPTSEDSALYFCARLGRYYFDYWGQGTTLTVSS VL: NIVMTQSPRSMSMSVGERVTLSCKASENVGTYISWYQQKPDQSPKLLIYGASNRYTGVPDRFTGSGSGTDFTLTISTVQAEDLADYHCGESYGHLYTFGGGTKLEIK", 0.00068),
    ("108VH5.M8 / 108VL1.M5 (antibody, human IgG4 S228P, kappa, V domains shown, Full-length IgG4 (S228P), kappa; also called VH5.M8 VL1.M5) VH: EVQLVQSGAEVKKPGASVKVSCKASGYSFTHHWIHWVRQAPGQGLEWMGMIDASDSETRYAQKFKDRVTMTRDTSTSTVYMELSSLRSEDTAVYYCARLGRYYFDYWGQGTLVTVSS VL: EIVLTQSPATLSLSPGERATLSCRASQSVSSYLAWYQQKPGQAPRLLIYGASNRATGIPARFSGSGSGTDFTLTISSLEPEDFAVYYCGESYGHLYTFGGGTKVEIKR", 0.0044),
    ("108VH5.M9 / 108VL1.M5 (antibody, human IgG4 S228P, kappa, V domains shown, Full-length IgG4 (S228P), kappa; also called VH5.M9 VL1.M5) VH: EVQLVQSGAEVKKPGASVKVSCKASGYSFTHHWIHWVRQAPGQGLEWMGMIDASDSETRLSQKFQGRVTMTRDTSTSTVYMELSSLRSEDTAVYYCARLGRYYFDYWGQGTLVTVSS VL: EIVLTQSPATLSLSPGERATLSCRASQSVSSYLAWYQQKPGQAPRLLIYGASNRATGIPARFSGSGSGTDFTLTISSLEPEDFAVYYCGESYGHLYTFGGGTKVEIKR", 0.0028),
]

Could you now consider this next binder?
[Q] Can you look up the measured koff of 108VH5 / 108VL1.M5 (antibody, human IgG4 S228P, kappa, V domains shown, Full-length IgG4 (S228P), kappa; also called VH5 VL1.M5) VH: EVQLVQSGAEVKKPGASVKVSCKASGYSFTHHWIHWVRQAPGQGLEWMGMIDPSDSETRLSQKFKDRVTMTRDTSTSTVYMELSSLRSEDTAVYYCARLGRYYFDYWGQGTLVTVSS VL: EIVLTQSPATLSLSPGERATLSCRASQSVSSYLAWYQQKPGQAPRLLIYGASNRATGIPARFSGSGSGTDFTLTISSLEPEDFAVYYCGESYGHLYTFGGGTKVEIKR for me?
[A] 0.0012
